- TEST DESCRIPTION: NCI Yeast Anticancer Drug Screen. Data for the mec2-1 strain (AID 157)
- CONDITIONS USED: S. cerevisiae mec2-1 strain, at 50.0 µM
The panel holds about 79,000 compounds, 15% with a hit somewhere; the sample as a whole holds those more often. The source made the active and inactive calls. Rule as the data show it: active = growth inhibition above about 70%; inactive = the rest.
Your reply should match one of these outcome classes. active, inactive

Some solved cases for reference:
Q: Per the assay record, what outcome was assigned to CCCCCC(C)[P+](c1ccccc1)(c1ccccc1)c1ccccc1 (centres undefined) ?
Ans: active

Q: Can you look up the reported call for [Ce+3].[Cl-].[O-]/N=C(\c1ccccc1)c1ccccn1.[O-]/N=C(\c1ccccc1)c1ccccn1.[O-]/N=C(\c1ccccc1)c1ccccn1 for me?
Ans: active

Q: What call does the record list for COC(=O)c1nc(NC#N)[nH]c(=O)c1CCCCCc1cnc(NC#N)nc1 ?
Ans: inactive

Q: Query: recorded result category for Cc1c2cnccc2c(C)c2c1c1ccccc1n2Cc1ccccc1 in this test
Ans: inactive

Q: Tell me the assay call for Cc1c2cc[n+](C)cc2c(COC2OC(CO)C(O)C2O)c2c3ccccc3n(C)c12 (centres undefined) please.
Ans: inactive

More entries:
Q: Recorded call for CSC1=NSC(c2ccccc2)=C(c2ccccc2)S1 ?
Ans: inactive

Q: So what was the verdict on O=C1C2C3CCC(O3)C2C(=O)N1c1cccc2ccccc12 (centres undefined) in this test?
Ans: inactive

Q: Record lookup: outcome of this test for N#CC1C(=O)NC(=O)C(C#N)C1c1ccc(Cl)c(Cl)c1 (centres undefined) ?
Ans: inactive

// data source = PubChem BioAssay (NCI)
